Cited source for all entries: the supplement of paper PMC5908809

- System: normal primary NK cells, pool 1 (3 donors) (IL-2 2.5 ng/mL);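 note: normalised to DMSO-only wells as negative and benzethonium chloride as positive control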
- assay_comment: percent inhibition of viability; higher = more inhibition
- applied_conditions: 72 h; 100 nM
measured_property: percent inhibition of viability (%)

                                   molecule  observed_value
0  Cc1cc(C(C)Nc2ccccc2)c2nc(N3CCOCC3)cc(=O)n2c1 (stereo unspecified) [TGX-221] (max concentration tested 10000 nM)           -6.33
1  CCCOc1ccn2c(C(C)=O)cc(-c3ccccc3S(C)(=O)=O)c2c1 [GSK2801] (max concentration tested 10000 nM)           -8.28
2  CN1CC[C@H](c2c(O)cc(O)c3c(=O)cc(-c4ccccc4Cl)oc23)[C@H](O)C1 [Alvocidib] (max concentration tested 10000 nM)            17.8
3  O=C(Nc1ccc2[nH]nc(-c3ccncc3)c2c1)[C@@H]1CCN(CC(=O)N2CCN(c3ccc(-c4ncccn4)cc3)CC2)C1 (max concentration tested 10000 nM)           -5.12
4  O=C(/C=C\n1cnc(-c2cc(C(F)(F)F)cc(C(F)(F)F)c2)n1)NNc1cnccn1 [Selinexor] (max concentration tested 10000 nM)            57.5
5  CC1=C(/C=C/C(C)=C/C=C/C(C)=C/C(=O)O)C(C)(C)CCC1 [Tretinoin] (max concentration tested 10000 nM)           -11.3
